Just for reference, patent US20200223906A1 is where these values come from.

Molecular target: T1, RSV F subtype A, furin-cleaved ectodomain stabilized in the prefusion conformation (DS-Cav1) (Respiratory syncytial virus subtype A, UniProt P03420 26-524)
T1 construct: extracellular domain; Trimeric soluble antigen; also called Prefusion subtype A
Assay: BLI, IgG on AHQ sensor, 100 nM antigen
observationType: pKd
For clarity, pKd is expressed as the negative log10 of concentration in mol/L.

binder	pKd
ADI-18913 (antibody, V domains shown, full-length IgG from yeast) VH: QVQLVQSGPEVKKPGESLTISCKGSGYDFSNNWIGWVRQMPGKGLEWMGIIYPGDSDTRYSPSFQGQVTLSVDKSISTAYLQWRSLKASDSGIYYCARQIGGLVCSSESCYFYGMDVWGQGTTVTVSS VL: DIQLTQSPSSLSASVGGRVTITCRASQSISNYLNWYQHKPGKAPELLIYGASSLQSGVPSRFSGSGSGTDFTLTISSLQPEDFATYYCQQSDTTPFTFGQGTKVDIK	9.25

Query block: Given ADI-18904 (antibody, V domains shown, full-length IgG from yeast; also called Antibody Number 259; Ab # 259) VH: EVQLVESGSEVKKPGAAVKVSCKASGYIFANFGVSWVRQAPGQGLEWMGWISAYNGNTNYAQKFQGRVIMTTDTSTSTAYMELRSLRSDDTAVYYCARDPPAYAATLMDVWGKGTTVTVSS VL: DIVMTQSPLSLPVTLGQSASISCRSSQSLEHSDTNTYLTWYQQRPGQSPRRLLYKVSNRDSGVPDRFSGSGSGTDFTLKISRVEAEDVGVYYCMQGTHWPPTFGQGTKLEIK , state its recorded pKd.
Result block: 9.60

Query block: Given ADI-18977 (antibody, V domains shown, full-length IgG from yeast) VH: QVQLVQSGTEVKKPGASVKISCKTSGYTFTNNVIQWVRQAPGQRLEWMGWISAGNGYTKYSDKFQDRVTITRDTSASTAYMEVSSLTSEDTAMYYCARQVSTSGWHATSHRFAPWGQGTLVTVSS VL: DIQMTQSPSSLSASVGDRVTITCQASQGISRYLNWYQQKPGKAPNLLIYDASNLETGVPSRFSGSGSGTHFTLTISSLQPEDIATYYCQQYDNLPLTFGGGTKVEIK , state its recorded pKd.
Result block: 9.10
